# SYSTEM_NAME: glycine site of the NMDA receptor complex (Rattus norvegicus)
# Construct: Crude synaptic (P2) membranes are prepared from rat forebrains freshly dissected from male Wistar rats
# ASSAY_NOTES: In vitro [3H]-Glycine Binding to Rat Brain Membranes (Test 1)
# CONDITION_CONTEXT: rat forebrain membranes, 4° C., 30 min, read-out: IC50, displacement of 50% of the specific binding of [3H]-glycine
pIC50 by entry:
As a rule, pIC50 stands for the negative log10 of the concentration, concentration in M.

Sample answers from the record:
{"STRUCTURE": "CCCc1c(Cl)sc2[nH]c(=O)c(=O)[nH]c12", "NUMBER": 6.74}
{"STRUCTURE": "Cc1csc2[nH]c(=O)c(=O)[nH]c12", "NUMBER": 6.00}
{"STRUCTURE": "O=c1[nH]c2scc(Br)c2[nH]c1=O", "NUMBER": 6.74}
{"STRUCTURE": "O=c1[nH]c2scc(C3CC3)c2[nH]c1=O", "NUMBER": 6.07}

Would you kindly look at the next entry?
[Q] Which pIC50 is reported for this molecule? `Cc1sc2[nH]c(=O)c(=O)[nH]c2c1C#N`
[A] 5.90
